Reported SPOT peptide array binding signal intensity values for the following binders.
- System name: SpLsb4
- Procedure summary: SPOT peptide array binding signal intensity (averaged, normalized) (arbitrary units (background-subtracted, floor 0; scale differs between SH3 domains)); higher = stronger binding of the SH3 domain to the peptide
Give the figure by itself; no unit, no explanation.

Examples from the recorded data:
{"columns": ["Binder", "Measured"],
 "data": [
  ["LLGRKRPVMERVVDI", 140],
  ["LASNSPPVYPKRIRH", 1810],
  ["NPLPKEPRLPKRKVA", 7280],
  ["GKKVRPLLVLLLSRA", 41],
  ["LLRRTIPKRPFYHVL", 463],
  ["VKPRQLFPIPLNKVD", 28.5]
]}

Query: Entry MARRRLPDRPPNGIG needs its SPOT peptide array binding signal intensity filled in; supply it.
Result: 5420

Query: Given the binder GKLKHIPRRPYEIER , write its reported SPOT peptide array binding signal intensity.
Result: 53.5

Query: Give the reported SPOT peptide array binding signal intensity for this binder. NLKKRPPTAPQRKIS
Result: 2350

// data source = the supplement of paper PMC4466140
